// provenance: patent US20260256921A1

Biological target: human TNF-α (Homo sapiens, UniProt P01375)
Sequence (P01375 77-233 limits assumed): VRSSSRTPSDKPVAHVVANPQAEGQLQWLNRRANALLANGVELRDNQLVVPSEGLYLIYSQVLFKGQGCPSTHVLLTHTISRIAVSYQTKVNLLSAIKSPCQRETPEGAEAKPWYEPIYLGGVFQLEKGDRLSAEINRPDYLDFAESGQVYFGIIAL
Experiment: TNF-α functional assay (hHEK-TNF-α SEAP reporter cells)
Assay type: cell-based
Design: purchased ACROBiosystems TNA-H4211
Conditions: hHEK-TNF-α cells, SEAP readout, TNF-α added at EC80 (1.034 pM), 18-24 hours; read-out: TNF-α Function IC50
Rule: measured IC50 below 0.3 µM gets 1; anything equal to or greater than 0.3 µM gets 0.

(Q) Below 0.3 µM on IC50? Entry CC(C)(C)OC(=O)CCOCCOCCC(=O)N1CCN(Cc2ccc(-c3c[nH]c4ccncc34)c(OCCc3ccc(-c4cccc5ccncc45)cc3)c2)CC1 [Intermediate 23]
(A) 0

(Q) Strictly below 0.3 µM in IC50? O=C(O)CCOCCOCCOCCOCCOCCOCCOCCOCCC(=O)N1CCN(Cc2ccc(-c3c[nH]c4ccncc34)c(OCCc3ccc(-c4cccc5ccncc45)cc3)c2)CC1 [Intermediate 4]
(A) 1

(Q) Item O=C(O)CCOCCOCCC(=O)N1CCN(Cc2ccc(-c3c[nH]c4ccncc34)c(OCCc3ccc(-c4cccc5ccncc45)cc3)c2)CC1 [Intermediate 24] : IC50 beneath 0.3 µM, strictly?
(A) 1

(Q) Lab note: IC50 threshold 0.3 µM. Does this molecule come in strictly under it? CC(C)(C)OC(=O)CCOCCOCCOCCOCCOCCOCCOCCOCCC(=O)N1CCN(Cc2ccc(-c3c[nH]c4ccncc34)c(OCCc3ccc(-c4cccc5ccncc45)cc3)c2)CC1 [Intermediate 3]
(A) 0

(Q) Report whether reported IC50 is lower than 0.3 µM (strictly) for O=C(O)CCOCCOCCOCCOCCOCCOCCC(=O)N1CCN(Cc2ccc(-c3c[nH]c4ccncc34)c(OCCc3ccc(-c4cccc5ccncc45)cc3)c2)CC1 [Intermediate 19]
(A) 0

(Q) Identify whether the molecule CCC(=O)N[C@H]1CO[C@H](COCCOCCOCCOCCn2cc(COCCNC(=O)CNC(=O)CCC(=O)N3CCN(Cc4ccc(-c5c[nH]c6ccncc56)c(OCCc5ccc(-c6cccc7ccncc67)cc5)c4)CC3)nn2)[C@H](O)[C@@H]1O records IC50 below 0.3 µM.
(A) 0

(Q) is_below(IC50, 0.3 µM) for CCC(=O)NC1COC(COCCOCCOCCOCCn2cc(COCC(COCc3cn(CCOCCOCCOCCOCC4OCC(NC(=O)CC)C(O)C4O)nn3)(COCc3cn(CCOCCOCCOCCOCC4OCC(NC(=O)CC)C(O)C4O)nn3)NC(=O)CNC(=O)CCC(=O)N3CCN(Cc4ccc(-c5c[nH]c6ccncc56)c(OCCc5ccc(-c6cccc7ccncc67)cc5)c4)CC3)nn2)C(O)C1O (centres unmarked) ?
(A) 0

(Q) Record CC(C)(C)OC(=O)CCOCCOCCOCCOCCOCCOCCC(=O)N1CCN(Cc2ccc(-c3c[nH]c4ccncc34)c(OCCc3ccc(-c4cccc5ccncc45)cc3)c2)CC1 [Intermediate 18] : is its IC50 strictly below 0.3 µM?
(A) 0

(Q) Identify whether the molecule CCC(=O)N[C@H]1CO[C@H](COCCOCCOCCOCCn2cc(COCCNC(=O)CNC(=O)CCOCCOCCC(=O)N3CCN(Cc4ccc(-c5c[nH]c6ccncc56)c(OCCc5ccc(-c6cccc7ccncc67)cc5)c4)CC3)nn2)[C@H](O)[C@@H]1O records IC50 below 0.3 µM.
(A) 0

(Q) For CCC(=O)NC1COC(COCCOCCOCCOCCn2cc(COCC(COCc3cn(CCOCCOCCOCCOCC4OCC(NC(=O)CC)C(O)C4O)nn3)(COCc3cn(CCOCCOCCOCCOCC4OCC(NC(=O)CC)C(O)C4O)nn3)NC(=O)CNC(=O)CCOCCOCCC(=O)N3CCN(Cc4ccc(-c5c[nH]c6ccncc56)c(OCCc5ccc(-c6cccc7ccncc67)cc5)c4)CC3)nn2)C(O)C1O (centres unmarked) , is the recorded IC50 below the cut-off of 0.3 µM?
(A) 0

(Q) # check: IC50 < 0.3 µM for CCC(=O)NC1COC(COCCOCCOCCOCCn2cc(COCCNC(=O)CNC(=O)CCOCCOCCOCCOCCOCCOCCC(=O)N3CCN(Cc4ccc(-c5c[nH]c6ccncc56)c(OCCc5ccc(-c6cccc7ccncc67)cc5)c4)CC3)nn2)C(O)C1O (centres unmarked)
(A) 0
